tested on: anesthetized dog; assay: Hemodynamic effects on the anesthetized dog; format: in vivo; conditions: anesthetized dog, i.v.
readout-label: Cardiac frequency (result in words)

# count of solved cases: 4
>  <line-notation>
c1ccc(-c2cc(OCCN3CCCCC3)[nH]n2)cc1

>  <obs-value>
drops moderately

$$$$
>  <line-notation>
Cc1c(-c2ccc(Cl)cc2)n[nH]c1OCCCN1CCCCC1

>  <obs-value>
does not change

$$$$
>  <line-notation>
Cc1c(-c2ccccc2)n[nH]c1OCCN1CCCC1

>  <obs-value>
drops moderately

$$$$
>  <line-notation>
Cc1c(-c2ccccc2)n[nH]c1OCCCN1CCCCC1

>  <obs-value>
drops moderately

$$$$

Query molecule follows.
# Cardiac frequency (result in words) lookup, item Cc1c(-c2ccccc2)n[nH]c1OCCN1CCOCC1
does not change
